# System: Enterococcus spp.
# procedure.summary: minimum inhibitory concentration (MIC)
# reported.conditions: isolate (source animal id): 310
// reported minimum inhibitory concentration for each item listed
observation.type: minimum inhibitory concentration

1) COc1cc(NS(=O)(=O)c2ccc(N)cc2)nc(OC)n1 [sulfadimethoxine] :: > 256 µg/mL
2) CC[C@H]1OC(=O)C[C@@H](O)[C@H](C)[C@@H](O[C@@H]2O[C@H](C)[C@@H](O)[C@H](N(C)C)[C@H]2O)[C@@H](CCN2CCCCC2)C[C@@H](C)C(=O)/C=C/C(C)=C/[C@@H]1CN1CCCCC1 [Tildipirosin] :: > 16 µg/mL
3) CS(=O)(=O)c1ccc([C@@H](O)[C@@H](CF)NC(=O)C(Cl)Cl)cc1 [Florfenicol] :: 4 µg/mL
4) C=C[C@]1(C)C[C@@H](OC(=O)CSCCN(CC)CC)[C@]2(C)[C@H](C)CC[C@]3(CCC(=O)[C@H]32)[C@@H](C)[C@@H]1O [Tiamulin] :: > 32 µg/mL
5) CN1C[C@@H]2C[C@H]1CN2c1cc2c(cc1F)c(=O)c(C(=O)O)cn2C1CC1 [Danofloxacin] :: > 1 µg/mL
6) CN(C)[C@@H]1C(O)=C(C(N)=O)C(=O)[C@@]2(O)C(O)=C3C(=O)c4c(O)cccc4[C@@](C)(O)[C@H]3C[C@@H]12 [Tetracycline] :: > 8 µg/mL
7) CCN1CCN(c2cc3c(cc2F)c(=O)c(C(=O)O)cn3C2CC2)CC1 [Enrofloxacin] :: 1 µg/mL
8) CC[C@H]1OC(=O)C[C@@H](O)[C@H](C)[C@@H](O[C@@H]2O[C@H](C)[C@@H](O)[C@H](N(C)C)[C@H]2O)[C@@H](CCN2C[C@H](C)C[C@H](C)C2)C[C@@H](C)C(=O)/C=C/C(C)=C/[C@@H]1CO[C@@H]1O[C@H](C)[C@@H](O)[C@@H](OC)[C@H]1OC [Tilmicosin] :: > 16 µg/mL

====

# Tested on: Pasteurella multocida
# procedure.summary: minimum inhibitory concentration (MIC)
# reported.conditions: isolate (source animal id): 290
observation.type: minimum inhibitory concentration (µg/mL)

1. CC1(C)S[C@@H]2[C@H](NC(=O)Cc3ccccc3)C(=O)N2[C@H]1C(=O)O :: 0.25
2. CCCN1C[C@H](C)[C@@H](O)[C@](C)(O)[C@@H](CC)OC(=O)[C@H](C)[C@@H](O[C@H]2C[C@@](C)(OC)[C@@H](O)[C@H](C)O2)[C@H](C)[C@@H](O[C@@H]2O[C@H](C)C[C@H](N(C)C)[C@H]2O)[C@](C)(O)C[C@H]1C :: 8
3. CNC(C)C1CCC(N)C(OC2C(N)CC(N)C(OC3OCC(C)(O)C(NC)C3O)C2O)O1 (stereo unspecified) :: 4

====

# System: Mannheimia haemolytica
# procedure.summary: minimum inhibitory concentration (MIC)
# reported.conditions: isolate (source animal id): 149
observation.type: minimum inhibitory concentration (µg/mL)

1) CC[C@H]1OC(=O)C[C@@H](O)[C@H](C)[C@@H](O[C@@H]2O[C@H](C)[C@@H](O)[C@H](N(C)C)[C@H]2O)[C@@H](CCN2CCCCC2)C[C@@H](C)C(=O)/C=C/C(C)=C/[C@@H]1CN1CCCCC1 :: 2
2) CS(=O)(=O)c1ccc([C@@H](O)[C@@H](CF)NC(=O)C(Cl)Cl)cc1 :: 0.5
3) CC[C@H]1OC(=O)C[C@@H](O)[C@H](C)[C@@H](O[C@@H]2O[C@H](C)[C@@H](O)[C@H](N(C)C)[C@H]2O)[C@@H](CCN2C[C@H](C)C[C@H](C)C2)C[C@@H](C)C(=O)/C=C/C(C)=C/[C@@H]1CO[C@@H]1O[C@H](C)[C@@H](O)[C@@H](OC)[C@H]1OC :: 8
4) CN[C@@H]1[C@H](O)[C@H](NC)[C@H]2O[C@@]3(O)C(=O)C[C@@H](C)O[C@H]3O[C@@H]2[C@H]1O :: 32
5) CCCN1C[C@H](C)[C@@H](O)[C@](C)(O)[C@@H](CC)OC(=O)[C@H](C)[C@@H](O[C@H]2C[C@@](C)(OC)[C@@H](O)[C@H](C)O2)[C@H](C)[C@@H](O[C@@H]2O[C@H](C)C[C@H](N(C)C)[C@H]2O)[C@](C)(O)C[C@H]1C :: 2
